# assay_system: T1, CD22 on cynomolgus monkey peripheral blood B cells (cynomolgus monkey (Macaca fascicularis))
# T1 construct: whole, on cells; also called cynomolgus monkey B cells
# assay_procedure: FACS, cynomolgus PBMC, CD20+ B cells, antibody 100 nM
# Description: The monkey peripheral blood mononuclear cells were extracted from fresh cynomolgus monkey peripheral blood (purchased from Shanghai Medicilon Inc.) according to the instructions of Ficoll-Paque Plus (purchased from GE Healthcare, catalog number: 171440-02). After the cell suspension was centrifuged, the cells were resuspended in PBS containing 1% BSA, and then the cells were counted. […]
metric: Proportion of chimeric antibody positive cells to B cells (%)
One number for each entry, in %.

Consider the reported Proportion of chimeric antibody positive cells to B cells (%) for these binders:
{"binder": "F2.104.10 (antibody, human IgG1, lambda, V domains shown, human-murine chimeric IgG1 lambda) VH: EVQLVESGGGFVKPGGSLKLSCAASGFTFSDYGMNWFRQAPEKGLEWVAYISRGSHTIYYADTVKGRFTISRDNAENTLFLQMTSLRSNDTAMYYCVRMAGYYAMDYWGQGTSLTVSS VL: QLVLTQSSSASFSLGASAKLTCTLSSQHSSYIIEWYQQQPLKPPKYVMEVKKDGSHSTGDGIPDRFSGSSSGADRYLSISNIQSEDEAIYICGVGDTIKEQFVYVFGGGTKVTVLG", "units_symbol": "%", "endpoint_value": 26}
{"binder": "F2.151.13 (antibody, human IgG1, lambda, V domains shown, human-murine chimeric IgG1 lambda) VH: QVHLQQPGTELMKPGASVKLSCKATGYTFRDYWLEWVKQRPGHGLEWIGEILPGSGNAYYNEKFKGKATFTADTSSNTAYMQLSSLTTEDSAIYYCARVYSNWYFDAWGKGTTVTVSS VL: QAVVTQESALTTSPGETVTLTCRSSTGAVTTSNYANWVQEKPDHLFTGLIGGTNNQAPGVPARFSGSLIGDKAALTISGAQTEDEAIYFCALWFSNHWVFGGGTKLTVLG", "units_symbol": "%", "endpoint_value": 60}
{"binder": "F2.127.11 (antibody, human IgG1, lambda, V domains shown, human-murine chimeric IgG1 lambda; VL name legible) VH: QVTLKESGPGILQPSQTLSLTCSFSGFSLSTFGMGVGWIRQPSGKGLEWLAHIWWDDDKHYNPALKSRLTISKDTSRNQVFLKIANVDTADGATYFCARDNWVSSLDYWGQGTSVIVSS VL: QPVITQSSSASFSLGASAELTCTLSSQHSTYTIEWYQQQPLKPPKYVMGLKKDGSHSTGDGIPDRFSGSSSGADRYLSISNIQPEDEAIYICGVSDTIKEQFVYVFGGGTKVTVLG", "units_symbol": "%", "endpoint_value": 22}
{"binder": "F1.216.2 (antibody, human IgG1, kappa, V domains shown, human-murine chimeric IgG1 kappa) VH: QVQLQQSGPEVVRPGASVKISCKASGYAFSSSWMNWMKQRPGKALEWIGRIYPGDGDTNYSGEFKVKATLTADKSSSTAYMQLSSLTSEDSAVYFCAREGSYYSNPWYFDYWGQGTTLTVSS VL: DVLVTQTPLSLPVSLGDQASISCRSSQSIVQSNGDTYLEWYLQKPGQSPKLLIYKVSNRFSGVPDRFSGSGSGTDFTLKISRVEAEDLGVYYCFQGSHVPFTFGSGTKLEIKR", "units_symbol": "%", "endpoint_value": 34}
{"binder": "F1.224.1 (antibody, human IgG1, kappa, V domains shown, human-murine chimeric IgG1 kappa; VL name legible) VH: EVLLHQSGPELVKPGASVKISCKASGYTFTDFNMDWVRQRHGQSLEWIGDVNPNNGGTIYNQKFKGKATLTVDKSSSTVYMDLRSLTSDDTAVYYCVRLGTSDYGEAWFISWGQGTVVTVSA VL: DIVLTQSPASLAVSLGQRATISCRASQSVSTPRYSFMHWYQQKPGQPPKLLIKYASNLESGFPARFTGSGSGTDFTLNIHPVEEEDTAAYYCQQSWAIPWTFGGGTKLEIKR", "units_symbol": "%", "endpoint_value": 97}
{"binder": "HA22-hIgG1 (antibody, V domains shown) VH: EVQLVESGGGLVKPGGSLKLSCAASGFAFSIYDMSWVRQTPEKCLEWVAYISSGGGTTYYPDTVKGRFTISRDNAKNTLYLQMSSLKSEDTAMYYCARHSGYGTHWGVLFAYWGQGTLVTVSA VL: DIQMTQTTSSLSASLGDRVTISCRASQDISNYLNWYQQKPDGTVKLLIYYTSILHSGVPSRFSGSGSGTDYSLTISNLEQEDFATYFCQQGNTLPWTFGCGTKLEIKR", "units_symbol": "%", "endpoint_value": 93}
{"binder": "F1.60.9 (antibody, human IgG1, kappa, V domains shown, human-murine chimeric IgG1 kappa) VH: QVQLKESGPGLVAPSQSLSITCTVSGLSLNNYGVSWVRQPPGKGLEWLGVIWGDGSTNYHSALISRLSISKDNSKSQVFLKLNSLHTDDTATYYCAINWGDYWGQGTTLIVSS VL: DIKMTQSPSSMNASLGERVTITCKASQDINSYLSWFQQKPGKSPKILIYRANRLIDGVPSRFSGSGSGQDYSLTISSLEYEDMGIYYCLQYGVFPLTFGAGTKLELKR", "units_symbol": "%", "endpoint_value": 18}
{"binder": "F2.121.9 (antibody, human IgG1, lambda, V domains shown, human-murine chimeric IgG1 lambda) VH: EVQLVESGGGLVKPGGSLKLSCAASGFTFSDYVMSWIRQTPEKRLEWVATISDAGSYTFYPDNLKGRFTISRDNAKNNLYLQMNHLTSEDTAFYYCAIIYFGNYGGYWGQGTLVTVSV VL: QAVVTQESALTTSPGGTVVLTCRSNTGAVTTSNYANWVQEKPDHLFTGLIGGTSNRAPGVPVRFSGSLIGDKAALTITGAQTEDDAMYFCALWYSTHWVFGGGTKLTVLG", "units_symbol": "%", "endpoint_value": 64}

Value sought for every listed binder: Proportion of chimeric antibody positive cells to B cells (%).
1. F1.200.11 (antibody, human IgG1, kappa, V domains shown, human-murine chimeric IgG1 kappa) VH: QNQLVQSGPELKKPGETVKISCKASGYTFTTAGMQWVQKMPGKGFKWIGWINTLSGEPKYAEDFKGRFAFSLETSATTAYLQISNLKNEDTATYFCARAYYSNLYWYFDVWGTGTTVTVSS VL: DIVMTQSQKFMSTTVGDRVTITCKASQNVVTAVAWYQQKPGQSPKVLIYSASNRYSGVPDRFTGSGSGTDFTLTISNMHSEDLANYFCHQYSSYPFTFGSGTKLEIKR
2. F1.267.9 (antibody, human IgG1, kappa, V domains shown, human-murine chimeric IgG1 kappa; VL name legible) VH: EVQLQQSGPVLVKPGASVKMSCKASGYTFTDFYMNWAKQSHGKSLEWVGVINPYNGGINYNQKFKGKATLTVDKSSSTAYMEFNSLTSEDSAVYYCARRMEYHAMDYWGQGTSVTVSS VL: DIVLTQSPASLAVSLGQRATISCRASESVDNYGFDFIHWYQQKPGQPPKLLIYRASNLESGIPARFSGSGSRPDFTLTINPVETDDVATYYCQQSIKDPWTFGGGTKLEIKR

1: 56; 2: 95
